FYI, the data here is from patent US20110183922A1.

biological target: AChE expressed in COS cells (human and/or mouse AChE) (human and/or mouse); assay: cell-based or functional assay
Attribute: G4 AChE level

>  <binder>
VNKCCLLTPPPPPLFPPPFFTETLDEL [SEQ ID NO: 8]

>  <G4 AChE level>
2.17

$$$$
>  <binder>
KRSVNKCCLLTPPPPPLFPPPFFKDEL [SEQ ID NO: 9]

>  <G4 AChE level>
2.37

$$$$
>  <binder>
CCLLTPPPPPLFPPPFFKDEL [ColQ PRAD-KDEL peptide]

>  <G4 AChE level>
2.37

$$$$
>  <binder>
KRSVNKCCLLTPPPPPLFPPPFFTETNILKDEL [SEQ ID NO: 11]

>  <G4 AChE level>
2.14

$$$$
>  <binder>
VNKCCLLTPPPPPLFPPPFFKDEL [SEQ ID NO: 6]

>  <G4 AChE level>
2.26

$$$$
